- procedureSummary: amyloid nucleation score (Sup35N fusion, yeast selection) (log enrichment); library NNK2; higher = more nucleation; inactive = no reads after selection;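 also: zero at mode of non-aggregating sequences after 7 days selection at 30°C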
Catalogue of substances with associated amyloid nucleation score
Just the number, please, no unit attached.

KGSIRCPRVFHQFRFLMG	-0.302
GNVECS	-0.463
GTAPSDQRTSSCR	0.989
FYHYDLLYRSGVLWRNHHGP	2.77
IDGRDSFCQGGNRTCSKGCC	-0.303
YLLLNYQACTMLDWNWVWVW	5.31
SYCVWCLYTSLLTLGQSASI	0.163
HNNFYPA	-0.552

API: the following record is the query input.
Reported amyloid nucleation score for SSFGGGCSVCRMWGGFLLDG was 4.4
